Experiment: Hypotensive action in narcotized cats
Type: in vivo
Settings: pentobarbital narcosis
Below, each entry is listed alongside its reported Decrease in blood pressure in Hgmm by 1 mg./kg..
Field format: number, assumed Hgmm, no unit text.

The examples below pair each entry with its known result.
Molecule | Measurement Unit | Measured Result
CN(N)c1ccc(-n2ncc(C#N)c2N)nn1 | Hgmm | -40
NNC(=O)c1cnn(-c2ccc(N(CCO)CCO)nn2)c1N | Hgmm | -10
COc1ccc(CCNc2ccc(-n3ncc(C(=O)NN)c3N)nn2)cc1OC | Hgmm | -10
Cl.NNc1nncc2ccccc12 [Hydralazine, 1-hydrazinophthalazine hydrochloride, reference compound] | Hgmm | -40

Query :: Answer with the recorded Decrease in blood pressure in Hgmm by 1 mg./kg. of `NNC(=O)c1cnn(-c2cccnn2)c1N` only.
Result :: -10

Query :: State its Decrease in blood pressure in Hgmm by 1 mg./kg.: `CCOC(=O)c1cnn(-c2ccc(NCc3ccccc3)nn2)c1N`
Result :: -15
